test system: MOLM-13 cells; experiment: MOLM-13 cell proliferation experiment; type: cell-based; settings: Homo sapiens, MOLM-13, 72 h, MOLM-13 cell proliferation, 3 days, Tables 3.1 and 3.2; read-out: IC50
experimental-readout: IC50

sample_smiles=N[C@@H]1CCCC12CCN(c1ncc(Sc3ccnc(F)c3Cl)c3nccn13)CC2 system_name="MOLM-13 cells" experimental_readout=IC50 result="100 to 1000 nM"
sample_smiles=CC1(CN)CCN(c2ncc(Sc3cccc(Cl)c3Cl)c3nncn23)CC1 system_name="MOLM-13 cells" experimental_readout=IC50 result="1000 to 10000 nM"
sample_smiles=Cc1ncccc1Sc1cnc(N2CCC3(CCC[C@H]3N)CC2)n2cnnc12 system_name="MOLM-13 cells" experimental_readout=IC50 result="1000 to 10000 nM"
sample_smiles=CC1(N)CCN(c2ncc(Sc3cccc(Cl)c3Cl)c3nncn23)CC1 system_name="MOLM-13 cells" experimental_readout=IC50 result="1000 to 10000 nM"
sample_smiles=COc1ccccc1Sc1cnc(N2CCC3(CCC[C@H]3N)CC2)n2ncnc12 system_name="MOLM-13 cells" experimental_readout=IC50 result="1000 to 10000 nM"

Provenance of the data: patent US11498930B2
